Target: T1, Cynomolgus TCR(AEA41865/AEA41866)-zipper protein (cynomolgus monkey)
T1 construct: also called cyTCR-zipper protein; cynoTCR zipper
T1 TCR alpha: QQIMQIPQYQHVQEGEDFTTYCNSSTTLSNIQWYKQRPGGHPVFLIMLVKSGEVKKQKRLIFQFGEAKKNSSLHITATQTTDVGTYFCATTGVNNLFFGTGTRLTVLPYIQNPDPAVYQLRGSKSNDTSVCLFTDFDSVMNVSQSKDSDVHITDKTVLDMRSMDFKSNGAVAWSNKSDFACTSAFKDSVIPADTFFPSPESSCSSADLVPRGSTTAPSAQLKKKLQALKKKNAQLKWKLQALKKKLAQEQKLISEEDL
T1 TCR beta: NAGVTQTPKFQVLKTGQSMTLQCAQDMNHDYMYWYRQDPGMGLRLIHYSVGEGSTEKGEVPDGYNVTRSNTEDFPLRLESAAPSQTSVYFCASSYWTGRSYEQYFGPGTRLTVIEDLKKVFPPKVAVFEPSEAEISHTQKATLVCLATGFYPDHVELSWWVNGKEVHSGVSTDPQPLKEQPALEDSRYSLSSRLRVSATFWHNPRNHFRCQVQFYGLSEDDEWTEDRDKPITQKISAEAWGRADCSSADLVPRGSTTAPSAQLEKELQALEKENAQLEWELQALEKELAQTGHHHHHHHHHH
Assay: SPR ProteOn off-rate screen
Threshold 0.002 s⁻¹. koff below it: satisfied. koff at it or above: not satisfied.

Hi there! Is koff for T017000359 (VHH) VHH: EVQLVESGGGVVQPGGSLRLSCVASWDVHQINFYGWYRQAPGKEREKVAHISIGDQTDYADSAKGRFTISRDESKNMVYLQMNSLRPEDTALYFCRAFSKIYPYDYWGQGTLVTVSS below 0.002 s⁻¹, do you know?
satisfied

State whether 0.002 s⁻¹ exceeds koff recorded for T017000408 (VHH) VHH: EVQLVESGGGVVQPGGSLRLSCVASGSVHKINFYGWYRQAPGKEREKVAHISIGDQTDYADSAKGRFTISRDESKNMVYLQMNSLRPEDTALYFCRAMSRIWPYDYWGQGTLVTVSS .
satisfied

Find out if reported koff for T017000461 (VHH) VHH: EVQLVESGGGVVQPGGSLRLSCVASGDVHQINFYGWYRQAPGKEREKVAHISIGDQTDYADSAKGRFTISRDESKNMVYLQMNSLRPEDTALYFCRAMSRIWPYDYWGQGTLVTVSS is less than 0.002 s⁻¹
not satisfied

# check: koff < 0.002 s⁻¹ for T017000521 (VHH) VHH: EVQLVESGGGVVQPGGSLRLSCVASGSVHQLNFYGWYRQAPGKEREKVAHISIGDQTDYADSAKGRFTISRDESKNMVYLQMNSLRPEDTALYFCRAMSRIWPYDYWGQGTLVTVSS
not satisfied

Regarding T017000401 (VHH) VHH: EVQLVESGGGVVQPGGSLRLSCVASGSVHKINFYGWYRQAPGKEREKVAHISIGDQTDYADSAKGRFTISRDESKNMVYLQMNSLRPEDTALYFCRAMSRIWPYDWWGQGTLVTVSS , kindly confirm whether its koff is beneath 0.002 s⁻¹.
satisfied

Lab note: koff threshold 0.002 s⁻¹. Does this binder come in strictly under it? T017000569 (VHH) VHH: EVQLVESGGGVVQPGGSLRLSCVASGDVHKLNFLGWYRQAPGKEREKVAHISIGDQTDYADSAKGRFTISRDESKNMVYLQMNSLRPEDTALYFCRAMSRIWPYDYWGQGTLVTVSS
not satisfied

Hi there! Is koff for T017000443 (VHH) VHH: EVQLVESGGGVVQPGGSLRLSCVASWDVHQINFYGWYRQAPGKEREKVAHISIGDQTDYADSAKGRFTISRDESKNMVYLQMNSLRPEDTALYFCRAMSKIYPYDYWGQGTLVTVSS below 0.002 s⁻¹, do you know?
satisfied

koff under 0.002 s⁻¹? Item: T017000613 (VHH) VHH: EVQLVESGGGVVQPGGSLRLSCVASWDVHKINFYGWYRQAPGKEREKVAHISIGDQTDYADSAKGRFTISRDESKNMVYLQMNSLRPEDTALYFCRALSKIWPYDYWGQGTLVTVSS
satisfied

Consider the binder T017000362 (VHH) VHH: EVQLVESGGGVVQPGGSLRLSCVASYDVHKINFYGWYRQAPGKEREKVAHISIGDQTDYADSAKGRFTISRDESKNMVYLQMNSLRPEDTALYFCRAMSKIWPYDYWGQGTLVTVSS . Is its koff strictly less than 0.002 s⁻¹?
satisfied

Say whether its koff is strictly beneath 0.002 s⁻¹. Entry: T017000390 (VHH) VHH: EVQLVESGGGVVQPGGSLRLSCVASWDVHQINFLGWYRQAPGKEREKVAHISIGDQTDYADSAKGRFTISRDESKNMVYLQMNSLRPEDTALYFCRAMSKIWPYDYWGQGTLVTVSS
satisfied

Hello, is koff of the following binder strictly smaller than 0.002 s⁻¹? T017000163 (VHH, also called T017000745) VHH: EVQLVESGGGVVQPGGSLRLSCVASGDVHQINFLGWYRQAPGKEREKVAHISIGDQTDYADSAKGRFTISRDESKNMVYLQMNSLRPEDTALYFCRAFSRIYPYDYWGQGTLVTVSS
not satisfied
